Exercise: for every item that follows, state its recorded activity change vs negative control.
System under test: Potassium voltage-gated channel subfamily KQT member 2 (Rattus norvegicus)
Assay info: KCNQ2 blockade in CHO cells – cell-based, FluxOR thallium flux, counter-screen for hERG block protector project, confirmation (AID 1946)
Measurement parameters: FluxOR thallium flux fluorescence, at 10 µM, stronger effect = lower value, zero marks the 3-SD hit cutoff
Screen size: about 2,400 compounds; about 180 (7.5%) were called active. This excerpt belongs to a sample that is enriched for actives.
Quick note: give the figure in %, leave out the unit.

Output measured activity change vs negative control for this item: CC(=O)c1c(NC(=O)c2ccccc2)[nH]c(-c2ccccc2)nc1=S
30.6

Output measured activity change vs negative control for this item: COc1cc(/C=C2/SC(=S)N(CC(=O)O)C2=O)ccc1OCC(=O)Nc1ccc(C)c(C)c1
-3.8

Output measured activity change vs negative control for this item: Cc1ccc(NC(=O)CCc2nc3sc4c(c3c(=O)[nH]2)CCCC4)c(Br)c1
-0.3

Output measured activity change vs negative control for this item: Cc1cccc2nc(-c3cccnc3)c(NCCC(C)C)n12
-23.5

Output measured activity change vs negative control for this item: CCOc1ccc(-n2cnc3sc(C)c(C)c3c2=O)cc1
3

Output measured activity change vs negative control for this item: O=c1[nH]c(C(Cl)(Cl)Cl)nc2ccc3ccccc3c12
37

Output measured activity change vs negative control for this item: O=S(=O)(NC(=S)NC1CCCCC1)c1ccc(Cl)cc1
34.4

Output measured activity change vs negative control for this item: CCC1CCCCN1C(=S)NC(=O)c1cccc([N+](=O)[O-])c1 (stereo unspecified)
55.4

Output measured activity change vs negative control for this item: Cc1cccc(N2CCN(C(=O)CNC(=O)c3cccc([N+](=O)[O-])c3)CC2)c1C
1.9

Output measured activity change vs negative control for this item: C=CCN(CC=C)C(=S)NC(=O)c1ccc(OC)cc1
31.6

Output measured activity change vs negative control for this item: CC(=O)c1c(N)[nH]c(-c2ccccc2)nc1=S
22.9

Output measured activity change vs negative control for this item: COc1cccc(C2C3=C(N=c4s/c(=C\c5ccc(OCC(=O)O)cc5)c(=O)n42)c2ccccc2CC3)c1 (stereo unspecified)
-16.7

Output measured activity change vs negative control for this item: O=C(NC(=S)N1CCN(c2nc(-c3ccccc3)cs2)CC1)c1cncc(Br)c1
76.4

Output measured activity change vs negative control for this item: COc1cccc([C@@H]2Oc3ccc(OC)cc3C(=O)[C@H]2OC(=O)NCc2ccc3c(c2)OCO3)c1
2.3

Output measured activity change vs negative control for this item: Cc1ccc(NC(=O)CN2C(=O)S/C(=C/c3ccc(-c4cc(C(=O)O)ccc4C)o3)C2=O)cc1C
4.8

Output measured activity change vs negative control for this item: Fc1cccc2sc(Nc3nnc(-c4ccccc4)o3)nc12
109
